target: T1, human DLL4 extracellular domain (human, UniProt Q9NR61 27-529); test: SPR (Biacore)
T1 construct: purified recombinant ECD; biotin-labelled or 6xHis-tagged depending on the assay; also called huDLL4 ECD; hu DLL4 ECD
T1 sequence (Q9NR61 27-529 limits assumed): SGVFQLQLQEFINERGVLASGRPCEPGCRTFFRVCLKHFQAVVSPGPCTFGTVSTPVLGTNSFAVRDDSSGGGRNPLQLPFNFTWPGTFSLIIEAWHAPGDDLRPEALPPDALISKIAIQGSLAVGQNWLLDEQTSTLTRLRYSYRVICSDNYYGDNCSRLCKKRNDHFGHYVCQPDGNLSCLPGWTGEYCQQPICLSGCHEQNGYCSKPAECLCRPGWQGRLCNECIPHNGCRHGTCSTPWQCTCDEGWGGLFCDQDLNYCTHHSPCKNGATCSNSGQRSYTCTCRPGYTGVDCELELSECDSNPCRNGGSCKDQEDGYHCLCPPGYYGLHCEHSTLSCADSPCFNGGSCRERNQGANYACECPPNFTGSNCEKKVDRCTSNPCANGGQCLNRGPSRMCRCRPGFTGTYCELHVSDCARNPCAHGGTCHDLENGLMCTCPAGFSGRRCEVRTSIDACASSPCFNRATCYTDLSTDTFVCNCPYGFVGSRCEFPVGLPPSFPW
Consider the following binders; for each one, report its pKd.
Scale: negative log10 of molar concentration, which is what pKd denotes.

[in] Record request: pKd value, item h1A11.6 (antibody, V domains shown, humanized IgG; also called VH.1a/VL.1a 1A11) VH: EVQLVESGGGLVQPGGSLRLSCAASGFTFSNFPMAWVRQAPGKGLEWVATISSSDGTTYYRDSVKGRFTISRDNAKSSLYLQMNSLRAEDTAVYYCSRGYYNSPFAYWGQGTLVTVSS VL: DIQMTQSPSSLSASVGDRVTITCRASEDIYSNLAWYQQKPGKSPKLLIFDTNNLADGVPSRFSGSGSGTDSTLTISSLQPEDFATYFCQQYNNYPPTFGQGTKLEIKR
[out] 7.95

[in] h1A11.16 (antibody, V domains shown, humanized IgG; also called VH.2a/VL.2a 1A11) VH: EVQLVESGGGLVQPGGSLRLSCAASGFTFSNFPMAWVRQAPGKGLEWVATISSSDGTTYYRDSVKGRFTISRDNSKSTLYLQMNSLRAEDTAVYYCSRGYYNSPFAYWGQGTLVTVSS VL: EIVMTQSPATLSVSPGERATLSCRASEDIYSNLAWYQQKPGQSPRLLIFDTNNLADGVPARFSGSGSGTESTLTISSLQSEDFAVYFCQQYNNYPPTFGQGTKLEIKR , same question.
[out] 7.82

[in] 1A11 rat anti-DLL4 monoclonal antibody (antibody, rat IgG1, V domains shown, rat IgG1/K hybridoma mAb; also called MC13-1A11.2E1; 1A11 (rat mAb)) VH: EVQLVESGGGLVQPGRSMKLSCAASGFTFRNFPMAWVRQAPTRGLEWVATISSSDGTTYYRDSVKGRFTISRDNAKSTLYLQVNSLRSEDTATYYCSRGYYNSPFAYWGQGTLVTVSS VL: DIQMTQSPASLSASLGETVTIECRASEDIYSNLAWYQQKPGNSPQLLIFDTNNLADGVPSRFSGSGSGTQSSLKINSLQSEDVASYFCQQYNNYPPTFGGGTKLELKR , same question.
[out] 8.22

[in] h1A11.13 (antibody, V domains shown, humanized IgG; also called VH.2a/VL.1 1A11) VH: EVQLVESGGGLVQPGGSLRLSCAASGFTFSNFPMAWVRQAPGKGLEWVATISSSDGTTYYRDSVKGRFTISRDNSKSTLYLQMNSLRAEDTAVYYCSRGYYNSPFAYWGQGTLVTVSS VL: DIQMTQSPSSLSASVGDRVTITCRASEDIYSNLAWYQQKPGKAPKLLIYDTNNLADGVPSRFSGSGSGTDFTLTISSLQPEDFATYYCQQYNNYPPTFGQGTKLEIKR , same question.
[out] 7.85

Values compiled from patent US20110217237A1.
